test: Solubility in 1× PBS; format: physicochemical

| compound | solubility / µM |
| --- | --- |
| FC(F)(F)c1cc2c(NC3CCCc4ccccc43)ncnc2[nH]1 (stereo not shown) | 1 |
| CN(C)[C@H]1CCc2ccccc2[C@@H]1Nc1ncnc2[nH]c(C(F)(F)F)cc12 | 190 |
| CC(=O)N1CCC(Nc2ncnc3[nH]c(C(F)(F)F)cc23)c2ccccc21 (stereo not shown) | 1.32 |
| CO[C@H]1COc2ccccc2[C@H]1Nc1ncnc2[nH]c(C(F)(F)F)cc12 | 20.9 |
| O[C@@H]1Cc2ccccc2[C@H]1Nc1ncnc2[nH]c(C(F)(F)F)cc12 | 19.2 |
| FC(F)(F)c1cc2c(N[C@@H]3CCOc4ccccc43)ncnc2[nH]1 | 150 |
| Fc1ccc2c(c1)CCCC2Nc1ncnc2[nH]c(C(F)(F)F)cc12 (stereo not shown) | 1 |
| CO[C@@H]1COc2ccccc2[C@@H]1Nc1ncnc2[nH]c(C(F)(F)F)cc12 | 23.8 |
| O[C@H]1Cc2ccccc2[C@H]1Nc1ncnc2[nH]c(C(F)(F)F)cc12 | 194 |
| CO[C@@H]1CCc2ccccc2[C@H]1Nc1ncnc2[nH]c(C(F)(F)F)cc12 | 1 |
| OC[C@@H]1CCc2ccccc2[C@H]1Nc1ncnc2[nH]c(C(F)(F)F)cc12 | 12.9 |
| O[C@H]1Cc2ccccc2[C@@H]1Nc1ncnc2[nH]c(C(F)(F)F)cc12 | 20.1 |
| C[C@H]1CCc2ccccc2[C@@H]1Nc1ncnc2[nH]c(C(F)(F)F)cc12 [Compound 82] | 1 |
| c1ccc2c(c1)CCC[C@H]2Nc1ncnc2[nH]c(C3CC3)cc12 | 1 |
| N#Cc1cccc2c1CCCC2Nc1ncnc2[nH]c(C(F)(F)F)cc12 (stereo not shown) | 1 |
| CN1CC[C@H](Nc2ncnc3[nH]c(C(F)(F)F)cc23)c2ccccc21 | 74.8 |
| C[C@H]1CCc2ccccc2[C@@H]1Nc1ncnc2[nH]c(C(F)(F)F)cc12 [Compound 102] | 1 |
| COc1ccc2c(c1)[C@@H](Nc1ncnc3[nH]c(C(F)(F)F)cc13)CCC2 [Compound 86] | 1.2 |
| Oc1ccc2c(c1)CCC[C@H]2Nc1ncnc2[nH]c(C(F)(F)F)cc12 | 102 |

###

assay: Tissue distribution, mouse; format: in vivo; details: plasma, dose 50 mg/kg, read-out: Plasma 1 h

| molecule | concentration at 1 h, ng/g |
| --- | --- |
| FC(F)(F)c1cc2c(NC3CCCc4ccccc43)ncnc2[nH]1 (stereo not shown) | 2080 |

###

system: HeLa MKYP cells; assay: Toxicity / cell death measured by DAPI staining (take-up); type: cell-based; conditions: Table 3 Supplement B; 25 μM, no FO
The reader will find reported Cell death at 25 μM (no FO) values listed item by item below.

| compound | Cell death at 25 μM (no FO) |
| --- | --- |
| CC[C@@H]1CCc2ccccc2[C@@H]1Nc1ncnc2[nH]c(C(F)(F)F)cc12 | 5.04% |
| N#Cc1cccc2c1CCCC2Nc1ncnc2[nH]c(C(F)(F)F)cc12 (centres unmarked) | 57.1% |
| CO[C@H]1COc2ccccc2[C@H]1Nc1ncnc2[nH]c(C(F)(F)F)cc12 | 2.49% |
| c1ccc2c(c1)OCC[C@H]2Nc1ncnc2[nH]c(C3CC3)cc12 | 7.26% |
| Fc1ccc2c(c1)CCCC2Nc1ncnc2[nH]c(C(F)(F)F)cc12 (centres unmarked) | 3.27% |
| CO[C@@H]1COc2ccccc2[C@@H]1Nc1ncnc2[nH]c(C(F)(F)F)cc12 | 3.4% |
| FC(F)(F)c1cc2c(N[C@@H]3CCOc4ccccc43)ncnc2[nH]1 | 3.04% |
| OC[C@H]1CCc2ccccc2[C@@H]1Nc1ncnc2[nH]c(C(F)(F)F)cc12 | 9.83% |

###

tested on: HeLa MKYP cells; test: Toxicity / cell death measured by DAPI staining (take-up); format: cell-based; settings: Table 3; 50 μM
# met = Toxicity (% positive for DAPI takeup @ 50 μM) below 20% (exclusive); not met = Toxicity (% positive for DAPI takeup @ 50 μM) at/above 20%

| compound | study.system | category |
| --- | --- | --- |
| COc1ccc2c(c1)[C@@H](Nc1ncnc3[nH]c(C(F)(F)F)cc13)CCC2 [Compound 86] | HeLa MKYP cells | met |
| CC(C)[C@@H](Nc1ncnc2[nH]c(C(F)(F)F)cc12)c1cncnc1 [Compound 26] | HeLa MKYP cells | met |
| c1ccc2c(c1)OCC[C@@H]2Nc1ncnc2[nH]cnc12 [Compound 59] | HeLa MKYP cells | met |
| FC(F)(F)c1cc2c(N[C@@H]3CCOc4ccccc43)ncnc2[nH]1 [Compound 37] | HeLa MKYP cells | not met |
| CC(Nc1ncnc2[nH]c(C3CC3)nc12)c1ccccc1 (centres unmarked) [Compound 28] | HeLa MKYP cells | met |

###

The reader will find reported Cell death at 25 μM (no FO) values listed item by item below.
system: HeLa MKYP cells; assay: Toxicity / cell death measured by DAPI staining (take-up); format: cell-based; conditions: Table 3 Supplement B; 25 μM, no FO

| compound | Cell death at 25 μM (no FO), % |
| --- | --- |
| c1ccc2c(c1)CCC[C@H]2Nc1ncnc2[nH]c(C3CC3)cc12 [Compound 107] | 9.32 |
| CO[C@@H]1COc2ccccc2[C@H]1Nc1ncnc2[nH]c(C(F)(F)F)cc12 [Compound 97] | 2.61 |
| Oc1ccc2c(c1)CCC[C@H]2Nc1ncnc2[nH]c(C(F)(F)F)cc12 [Compound 110] | 3.32 |
| O[C@H]1Cc2ccccc2[C@H]1Nc1ncnc2[nH]c(C(F)(F)F)cc12 [Compound 83] | 2.75 |

###

assay: Tissue distribution, mouse; assay type: in vivo; conditions: kidney, dose 50 mg/kg, read-out: Kidney 1
property.name: concentration at 1 h (ng/g)

| compound | property.name | result |
| --- | --- | --- |
| FC(F)(F)c1cc2c(NC3CCCc4ccccc43)ncnc2[nH]1 (stereo not shown) [Compound 15] | concentration at 1 h | 11500 |

###

system: Hela MKYP (Mito-Keima/YFP-Parkin) cells; assay: Inspection of round cells; conditions: 3.1 μM; Tables 6A-6D

| molecule | Inspection of round cells |
| --- | --- |
| C[C@@H](Nc1ncnc2[nH]c(C(F)(F)F)cc12)c1cncnc1 | 0 |
| C[C@H](Nc1ncnc2[nH]cnc12)c1ccccc1 | 0 |
| CCCCNc1ncnc2c1cc(C(F)(F)F)n2C(C)=O | 0 |
| FC(F)(F)c1cc2c(NC3CCCc4ccccc43)ncnc2[nH]1 (centres unmarked) | 0 |
| CN(C)C1CCC(CNc2ncnc3[nH]c(C(F)(F)F)cc23)CC1 (centres unmarked) | 0 |
| CC(Nc1ncnc2[nH]c(C3CC3)nc12)c1ccccc1 (centres unmarked) | 0 |
| CC(Nc1ncnc2[nH]cnc12)c1ccccc1 (centres unmarked) | 0 |
| c1ncc(CNc2ncnc3[nH]cnc23)cn1 | 0 |
| CCCCNc1ncnc2[nH]c(C(F)(F)F)c(C)c12 | 0 |
| C[C@H](Nc1ncnc2[nH]c(C(F)(F)F)cc12)c1cncnc1 | 0 |
| C[C@@H](Nc1ncnc2[nH]cnc12)c1ccccc1 | 0 |
| COc1ncc(CNc2ncnc3[nH]c(C(F)(F)F)cc23)cn1 | 0 |
| C[C@@H](Nc1ncnc2[nH]c(C(F)(F)F)cc12)c1ccccc1 | 0 |
| CCC(Nc1ncnc2[nH]c(C(F)(F)F)cc12)c1cncnc1 (centres unmarked) | 0 |

###

system: HeLa MKYP cells; test: Toxicity / cell death measured by DAPI staining (take-up); type: cell-based; details: Table 3; 50 μM
property.name: Toxicity (% positive for DAPI takeup @ 50 μM) (%)

| compound | study.system | readout.units | result |
| --- | --- | --- | --- |
| COc1ccccc1CNc1ncnc2[nH]c(C(F)(F)F)cc12 | HeLa MKYP cells | % | 24.7 |
| O=S1(=O)Cc2ccccc2C(Nc2ncnc3[nH]c(C(F)(F)F)cc23)C1 (centres unmarked) | HeLa MKYP cells | % | 13.2 |
| CC(Nc1ncnc2[nH]cnc12)c1ccccc1 (centres unmarked) | HeLa MKYP cells | % | 18.2 |
| CO[C@H]1COc2ccccc2[C@@H]1Nc1ncnc2[nH]c(C(F)(F)F)cc12 [Compound 98] | HeLa MKYP cells | % | 15.9 |
| FC(F)(F)c1cc2c(NCc3cccc(Cl)c3)ncnc2[nH]1 | HeLa MKYP cells | % | 20.3 |

###

system: HeLa MKYP cells; assay: Human mitophagy assay (HeLa MKYP, mtKeima FACS, FCCP/oligomycin); format: cell-based; details: Homo sapiens, HeLa, 6 h, Table 3; % activation of mitophagy at 6.3 μM treatment of the compound; read-out: Potency at 1 μM F/O toxin*
The reader will find reported activation at 6.3 µM values listed item by item below.

| compound | study.system | readout.units | activation at 6.3 µM |
| --- | --- | --- | --- |
| FC(F)(F)c1cc2c(NCc3cncnc3)ncnc2[nH]1 [Compound 19] | HeLa MKYP cells | % | 50.3 |
| FC(F)(F)c1cc2c(NCc3cnccn3)ncnc2[nH]1 [Compound 21] | HeLa MKYP cells | % | 9.1 |
| Fc1cccc(CNc2ncnc3[nH]c(C(F)(F)F)cc23)c1Cl [Compound 23] | HeLa MKYP cells | % | 87.7 |
| COc1ncccc1CNc1ncnc2[nH]c(C(F)(F)F)cc12 [Compound 22] | HeLa MKYP cells | % | 18.5 |
| Fc1cc(Cl)cc(CNc2ncnc3[nH]c(C(F)(F)F)cc23)c1 [Compound 24] | HeLa MKYP cells | % | 51.2 |
| FC(F)(F)c1cc2c(NCc3ccncn3)ncnc2[nH]1 [Compound 20] | HeLa MKYP cells | % | 7.9 |
| FC(F)(F)c1cc2c(NCc3cccc(Cl)c3)ncnc2[nH]1 [Compound 25] | HeLa MKYP cells | % | 49.9 |

# credit: patent US20220162215A1
